- System: Mycobacterium tuberculosis
- measurementNotes: Antimycobacterial activity against drug susceptible Mycobacterium tuberculosis H37Rv assessed as minimal inhibitory concentration required for complete inhibition of mycobacterial growth incubated for 14 days
- Format: functional
- reportedConditions: 336 h, time 14 day
measuredParameter: MIC

Look up MIC: "C/C(=N\NC(=O)c1ccncc1)C(=O)Nc1ccc(I)cc1"
0.25 µM

Look up MIC: "C/C(=N\NC(=O)c1ccncc1)C(=O)Nc1cccc(Cl)c1"
0.125 µM

Look up MIC: "C/C(=N\NC(=O)c1ccncc1)C(=O)Nc1ccc(Cl)c(Cl)c1"
0.06 µM

Look up MIC: "C/C(=N\NC(=O)c1ccncc1)C(=O)Nc1ccc(C(F)(F)F)cc1"
≤ 0.03 µM

Look up MIC: "C/C(=N\NC(=O)c1ccncc1)C(=O)Nc1cc(C(F)(F)F)cc(C(F)(F)F)c1"
1 µM

Look up MIC: "C/C(=N\NC(=O)c1ccncc1)C(=O)Nc1ccc(OC(F)(F)F)cc1"
≤ 0.03 µM

Look up MIC: "C/C(=N\NC(=O)c1ccncc1)C(=O)Nc1cccc(F)c1"
0.25 µM

Look up MIC: "C/C(=N\NC(=O)c1ccncc1)C(=O)Nc1cccc(C(F)(F)F)c1"
0.125 µM

Look up MIC: "C/C(=N\NC(=O)c1ccncc1)C(=O)Nc1ccc(OC(F)F)cc1"
0.25 µM

Look up MIC: "C/C(=N\NC(=O)c1ccncc1)C(=O)Nc1ccc(Cl)cc1"
0.25 µM

Look up MIC: "C/C(=N\NC(=O)c1ccncc1)C(=O)Nc1ccc(C(F)(F)C(F)(F)C(F)(F)C(F)(F)C(F)(F)C(F)(F)C(F)(F)C(F)(F)F)cc1"
0.25 µM

Look up MIC: "C/C(=N\NC(=O)c1ccncc1)C(=O)Nc1cccc(I)c1"
0.125 µM

Look up MIC: "C/C(=N\NC(=O)c1ccncc1)C(=O)Nc1cc(Cl)cc(Cl)c1"
≤ 0.25 µM

Look up MIC: "C/C(=N\NC(=O)c1ccncc1)C(=O)Nc1cccc(OC(F)(F)F)c1"
0.125 µM

Look up MIC: "C/C(=N\NC(=O)c1ccncc1)C(=O)O"
1 µM

Look up MIC: "C/C(=N\NC(=O)c1ccncc1)C(=O)Nc1cccc(Br)c1"
0.125 µM

Look up MIC: "C/C(=N\NC(=O)c1ccncc1)C(=O)Nc1ccc(Br)cc1"
0.06 µM

Look up MIC: "C/C(=N\NC(=O)c1ccncc1)C(=O)Nc1ccc(SC(F)(F)F)cc1"
0.5 µM

Look up MIC: "NNC(=O)c1ccncc1"
0.5 µM

Look up MIC: "C/C(=N\NC(=O)c1ccncc1)C(=O)Nc1cc(Cl)c(Cl)c(Cl)c1"
0.5 µM

Look up MIC: "C/C(=N\NC(=O)c1ccncc1)C(=O)Nc1ccc(F)cc1"
0.25 µM

Look up MIC: "C/C(=N\NC(=O)c1ccncc1)C(=O)Nc1ccc(F)c(F)c1"
0.25 µM
